Tested on: Staphylococcus aureus
Test: Antibacterial activity against Staphylococcus aureus assessed as bacterial growth inhibition incubated for 72 hrs by microdilution assay
Format: functional, organism-based
Conditions: Staphylococcus aureus; time 72 hrs
I'd appreciate it if you could supply MIC values for the items below.
# value in µM; strip the unit string

Query: # input compound: CCCCCCCCCCCC[N+](C)(C)CCCCC[N+](C)(C)CCCCCCCCCCCC ; wanted: its MIC
Reply: 1

Query: # input compound: CCCCCCCCCCCC[N+](C)(C)CCCCCCCCCCCC ; wanted: its MIC
Reply: 1

Query: # input compound: CCCCCCCCCCC[n+]1ccc(CCCc2cc[n+](CCCCCCCCCCC)cc2)cc1 ; wanted: its MIC
Reply: 0.25

Query: # input compound: CCCCCCCCCCCC[N+](C)(C)CC[N+](C)(C)CCCCCCCCCCCC ; wanted: its MIC
Reply: 1

Query: # input compound: CCCCCCCCCCCC[N+](C)(C)CCN(C)CC[N+](C)(C)CCCCCCCCCCCC ; wanted: its MIC
Reply: 1

Query: # input compound: CCCCCCCCCCCCC[N+](C)(C)CCCN(C)CCC[N+](C)(C)CCCCCCCCCCCC.[Br-].[Br-] ; wanted: its MIC
Reply: 1

Query: # input compound: CCCCCCCCCCCC[N+](C)(C)CCC[N+](C)(C)CCCCCCCCCCCC ; wanted: its MIC
Reply: 2

Numbers sourced from ChEMBL document CHEMBL5331054.
